Where do the numbers come from? From PubChem BioAssay (NCI).

System: K-562 leukemia
Test: NCI-60 one-dose screen, 48 h
Conditions: 10 µM unless noted
This is part of a sample that, as a whole, favours compounds with a hit. Of some 83,000 tested, about 20% had one in any assay. The source made the active and inactive calls. Rule for the calls: active = growth percent below 10; inactive = the rest.
// allowed return values: active, inactive

Short answer needed: outcome of this test for COc1ccc(OCC(CO)N2CCN(c3ccccc3)CC2)cc1 (stereo not given) ? inactive

Short answer needed: outcome of this test for COc1ccc(-c2nc3ccccn3c2-c2nc3ccc(Cl)cc3[nH]2)cc1 ? inactive

Short answer needed: outcome of this test for C=C(C)[C@@H]1CC[C@]2(CN)CC[C@]3(C)[C@H](CC[C@@H]4[C@@]5(C)CCC(=O)NC(C)(C)[C@@H]5CC[C@]43C)[C@@H]12 ? active

Continuing:
Short answer needed: outcome of this test for CN1CCN(c2nc(-c3cccc4ccccc34)nc3sc4c(c23)CCCCCC4)CC1 ? inactive

Short answer needed: outcome of this test for COc1cc2c(cc1OC)C(=O)/C(=C/c1cc(-c3ccc4c(c3)OCO4)n[nH]1)C2 ? active
